Tested on: P. vulgatus RND KO;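 also: active when median AUC fell below 0.1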
Test: growth AUC normalised to DMSO control (median) (fraction of control); higher = less growth inhibition, active = hit call of the paper
Conditions: 20 µM
Where a name gives a salt, the structure may show the parent alone.
Answer label 0 if growth AUC normalised to DMSO control is under 1, and label 1 if it is 1 or more.

[
  {
    "compound": "CCCCOc1cc(C(=O)NCCN(CC)CC)c2ccccc2n1 [Dibucaine]",
    "group": "label 1"
  },
  {
    "compound": "Cc1c(Cl)cccc1Nc1ccccc1C(=O)O [Tolfenamic acid]",
    "group": "label 0"
  },
  {
    "compound": "COc1cc2nc(N3CCN(C(=O)C4CCCO4)CC3)nc(N)c2cc1OC (stereo not given) [Terazosin hydrochloride]",
    "group": "label 1"
  },
  {
    "compound": "COc1cc2/c(=N/c3ccc(Br)cc3F)nc[nH]c2cc1OCC1CCN(C)CC1 [Vandetanib]",
    "group": "label 1"
  }
]
